The reported measurements were obtained from PubChem BioAssay.

- protocol: blockers of DNA damage checkpoint Chk1 activation – imaging, HeLa, hydroxyurea, phospho-Chk1 antibody, percent positive cells, primary screen (AID 1186)
- recorded.conditions: hydroxyurea-induced phospho-Chk1 immunofluorescence imaging, higher = more signal
# z-score >= -0.3 gives criterion met, anything below gives criterion not met

molecule: O=C1c2ccccc2C(=O)C2CC([C@H]3Oc4ccccc4S(=O)(=O)N4CCC[C@@H]34)=CCC12 (some centres undefined)
label.class: criterion met

molecule: COCCOC(=O)N1C(=O)[C@@]2(c3cc(C#CC4(O)CCCCCC4)ccc31)[C@H](C(=O)N1CCc3cc(OC)c(OC)cc3C1)[C@H]1C(=O)O[C@H](c3ccccc3)[C@H](c3ccccc3)N1[C@@H]2c1ccccc1OCCO
label.class: criterion met

molecule: C=C(COC)C(=O)CC[C@H](OC(=O)c1ccccc1-c1ccccc1C(=O)O)c1ccc(OCCO)cc1
label.class: criterion not met

molecule: [N-]=[N+]=NCc1ccccc1C[C@]1(C(=O)NCCN2CCOCC2)COC(c2ccc(OCCCO)cc2)=N1
label.class: criterion not met

molecule: CO[C@H]1O[C@H](CO)[C@@H](OC(=O)Nc2ccc(C(F)(F)F)cc2)[C@H](OC(=O)Nc2ccccc2)[C@H]1OC(=O)Nc1ccccc1
label.class: criterion not met

molecule: NC(=O)NCC#Cc1ccc2c(c1)[C@]1(C(=O)N2)[C@H](c2ccc(OCCO)cc2)N2[C@H](c3ccccc3)[C@H](c3ccccc3)OC(=O)[C@H]2[C@@H]1C(=O)N1CCN(c2ncccn2)CC1
label.class: criterion met

molecule: CCCCC(=C=CC[C@H](O)c1ccccc1OCCO)C[C@H](O)c1ccccn1
label.class: criterion met

molecule: COCCCNC(=O)[C@@]1(Cc2ccccc2N=[N+]=[N-])N=C(c2ccc(OCCCO)cc2)O[C@H]1c1ccccc1CN=[N+]=[N-]
label.class: criterion not met

molecule: O=C1O[C@H](c2ccccc2)[C@H](c2ccccc2)N2[C@H]1[C@@H](C(=O)N1CCN(c3ncccn3)CC1)[C@]1(C(=O)Nc3ccc(C#CCCO)cc31)[C@H]2c1ccccc1OCCO
label.class: criterion not met

molecule: OCc1ccc(-c2cc[n+](Cc3cccc(OC(F)(F)F)c3)cc2)cc1
label.class: criterion met

molecule: CN(C)CCCCNC(=O)[C@H]1C[C@H]2C(=O)N[C@@H](CCCC[N+](C)(C)C)C(=O)N2[C@H]1c1cccc(OCCO)c1
label.class: criterion met

molecule: C/C=C/[C@@H](CCn1cc([C@H](O)c2ccccc2)nn1)[Si](C)(C)c1ccc(OC)cc1
label.class: criterion met

molecule: CC(C)NC(=O)[C@@H]1c2ccccc2C(=O)N(Cc2cc(C(F)(F)F)cc(C(F)(F)F)c2)[C@H]1c1ccc(CO)cc1
label.class: criterion met

molecule: Cc1ccc(C(C)CC(O)C2C=CC3C(=O)N(Cc4ccccc4)C(=O)C3N2n2cnnc2)o1 (centres undefined)
label.class: criterion met

molecule: O=C1C2C=CC(C(O)c3cccc4ccccc34)N(Nc3ccccc3)C2C(=O)N1c1ccccc1 (centres undefined)
label.class: criterion met

molecule: O=[N+]([O-])c1ccc(C[n+]2ccc(-c3ccc(CO)cc3)cc2)o1
label.class: criterion met

molecule: CCCCC(=C=CC[C@H](O)c1cccc(OCCO)c1)C[C@H](O)COCc1ccccc1
label.class: criterion met

molecule: CCCNC(=O)[C@@]1(Sc2ccc(C)cc2)CC(=O)N(Cc2ccccc2)[C@@H]1c1ccc(CO)cc1I
label.class: criterion met

molecule: COc1ccc([Si](C)(C)[C@H]2[C@H](CCO)O[C@@]3(C(=O)N(Cc4cccc(N5CCOC5=O)c4)c4ccccc43)[C@@H]2C)cc1
label.class: criterion not met

molecule: CCCN1C(=O)[C@@H]2Cc3c([nH]c4ccccc34)[C@@H](c3cccc(O)c3)N2C1=O
label.class: criterion met

molecule: N#Cc1ccc(NN2C(C(O)c3ccccc3)C=CC3C(=O)N(c4ccccc4)C(=O)C32)cc1 (centres undefined)
label.class: criterion met

molecule: [N-]=[N+]=NCc1ccccc1C[C@]1(C(=O)NCCN2CCOCC2)N=C(c2ccc(OCCCO)cc2)O[C@H]1c1ccccc1
label.class: criterion met

molecule: C[C@]12C(=O)N(CCCCCO)[C@@H]3C(=O)N(c4ccc(Cl)cc4)CC=CC31O[C@@H]1/C=C\CCCOC(=O)C12 (some centres undefined)
label.class: criterion met

molecule: C[C@]12C(=O)N(CCCO)[C@@H]3C(=O)N(c4ccc(Cl)cc4)CC=CC31O[C@@H]1/C=C\CCCOC(=O)C12 (some centres undefined)
label.class: criterion not met

molecule: COc1cccc(C)c1NC(=O)O[C@H]1[C@H](OC(=O)Nc2ccccc2)[C@H](OC(=O)Nc2ccccc2)[C@@H](OC)O[C@@H]1CO
label.class: criterion met

molecule: COc1ccc([Si](C)(C)[C@@H]2[C@@H](CCO)O[C@]3(C(=O)N(Cc4ccccc4)c4ccc(N5CCCCC5=O)cc43)[C@H]2C)cc1
label.class: criterion not met

molecule: C=CC[C@@]1(C(=O)NCCN2CCOCC2)N=C(c2ccc(OCCCO)cc2)O[C@@H]1c1ccccc1
label.class: criterion met

molecule: COCCOC(=O)N1C(=O)[C@@]2(c3cc(C#CCCO)ccc31)[C@H](C(=O)NC[C@H](O)c1ccccc1)[C@H]1C(=O)O[C@H](c3ccccc3)[C@H](c3ccccc3)N1[C@@H]2c1ccccc1OCCO
label.class: criterion met

molecule: NC(=O)[C@@H]1[C@H]2C(=O)O[C@H](c3ccccc3)[C@H](c3ccccc3)N2[C@H](c2ccccc2OCCO)[C@@]12C(=O)Nc1ccc(C#CCCO)cc12
label.class: criterion met

====

Parameter: composite z-score. Scope: all listed entries.
- protocol: binders from COS7 lysate, DM2A8 probe, primary screen, torsin A project, cell lysate, small-molecule microarray, fluorescence 635/667 (AID 1065)
- recorded.conditions: higher = more signal, COS7 lysate expressing mutant human TOR1A
assay.endpoint: composite z-score

compound.structure.string: C=CCN1C(=O)[C@@]2(O[C@@H](CCn3cc([C@H](O)c4ccccc4)nn3)[C@H]([Si](C)(C)c3ccc(OC)cc3)[C@H]2C)c2cc(NC(=O)c3ccc(OC)cc3)ccc21
result: 0.321
--
compound.structure.string: NC(=O)NCC#Cc1ccc2c(c1)[C@]1(C(=O)N2)[C@H](c2ccc(O)cc2)N2[C@H](c3ccccc3)[C@H](c3ccccc3)OC(=O)[C@H]2[C@@H]1C(N)=O
result: -1.07
--
compound.structure.string: COC(=O)[C@@]1(Cc2ccc(OC)cc2)[C@H]2c3cc(C(=O)N(C)C)n(Cc4cc(F)c(F)c(F)c4)c3C[C@H]2CN1C(=O)c1ccccc1
result: -0.136

====

- Test system: wheat germ agglutinin (Triticum aestivum), Alexa647-labelled
- protocol: Alexa647-WGA lectin binding to printed small molecules – biochemical, small-molecule microarray, 635/667 nm fluorescence, artefact control for SMM control-protein annotation, profiling panel (AID 1140);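 also: score merges 667 nm feature emission with signal to noise over triplicate slides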
- recorded.conditions: WGA-A647 binding, 635 nm fluorescence, higher = more signal
composite z-score values by entry

compound: CCOC(=O)C1=CC[C@@H](c2ccc(N(CC)CC)cc2)N(S(=O)(=O)c2ccc(C)cc2)[C@H]1c1ccc([N+](=O)[O-])cc1
test.system: wheat germ agglutinin (Triticum aestivum), Alexa647-labelled
composite z-score: 0.516

compound: COCC(=C=CC[C@@H](O)c1ccccc1OCCO)C[C@@H](O)c1ccccn1
test.system: wheat germ agglutinin (Triticum aestivum), Alexa647-labelled
composite z-score: 0.293

compound: COCC1=C([C@H](O)CCc2ccccc2)[C@H](CO)[C@@H]2C(=O)N(C)C(=O)[C@@H]2C1
test.system: wheat germ agglutinin (Triticum aestivum), Alexa647-labelled
composite z-score: -0.368

compound: CC(C)C[C@@H]1NC(=O)[C@@]23C(=O)N[C@@H](Cc4ccccc4)C2[C@H](C)[C@@]2(C)O[C@H]2C3/C=C/C/C=C\CNC(=O)[C@@H]2CCCN2C1=O (stereo not given in full)
test.system: wheat germ agglutinin (Triticum aestivum), Alexa647-labelled
composite z-score: -0.299

compound: CN(C)C(=O)[C@@]1(CCS(=O)(=O)c2ccccc2)N=C(c2ccc(OCCCO)cc2)O[C@H]1c1ccccc1CN=[N+]=[N-]
test.system: wheat germ agglutinin (Triticum aestivum), Alexa647-labelled
composite z-score: 0.915

compound: [N-]=[N+]=Nc1ccccc1C[C@]1(C(=O)NCCN2CCOCC2)N=C(c2ccc(OCCCO)cc2)O[C@H]1c1ccccc1N=[N+]=[N-]
test.system: wheat germ agglutinin (Triticum aestivum), Alexa647-labelled
composite z-score: 0.687

compound: COCCCNC(=O)[C@@]1(Cc2ccccc2)COC(c2ccc(OCCCO)cc2)=N1
test.system: wheat germ agglutinin (Triticum aestivum), Alexa647-labelled
composite z-score: 0.509

compound: COCCCNC(=O)[C@@]1(Cc2ccccc2I)c2ccccc2C(=O)N(Cc2ccccc2Cl)[C@H]1c1ccc(CO)cc1
test.system: wheat germ agglutinin (Triticum aestivum), Alexa647-labelled
composite z-score: 0.897

compound: O=C(Nc1cc(Br)ccc1C(=O)NCc1cccc(O)c1)c1ccccc1
test.system: wheat germ agglutinin (Triticum aestivum), Alexa647-labelled
composite z-score: 1.01

compound: C#CCNS(=O)(=O)N(C)C
test.system: wheat germ agglutinin (Triticum aestivum), Alexa647-labelled
composite z-score: 0.0088

compound: COC(=O)[C@H]1N=C(c2ccc(OCCCO)cc2)O[C@H]1c1ccccc1CN=[N+]=[N-]
test.system: wheat germ agglutinin (Triticum aestivum), Alexa647-labelled
composite z-score: 0.434

compound: COCCCNC(=O)[C@]1(Cc2ccccc2CN=[N+]=[N-])N=C(c2ccc(OCCCO)cc2)O[C@@H]1c1ccccc1CN=[N+]=[N-]
test.system: wheat germ agglutinin (Triticum aestivum), Alexa647-labelled
composite z-score: 1.02

compound: Cc1ccc(S[C@]2(C(=O)NCC(C)C)CC(=O)N(C3CCCCC3)[C@@H]2c2ccc(CO)cc2I)cc1
test.system: wheat germ agglutinin (Triticum aestivum), Alexa647-labelled
composite z-score: 0.752

compound: COc1ccc(C#Cc2ccc3c(c2)[C@]2(C(=O)N3)[C@H](C(=O)O)[C@H]3C(=O)O[C@H](c4ccccc4)[C@H](c4ccccc4)N3[C@@H]2c2ccc(OCCO)cc2)cc1
test.system: wheat germ agglutinin (Triticum aestivum), Alexa647-labelled
composite z-score: 1.18

compound: CC(C)(C)OC(=O)CC[C@]1(C(=O)N2CCCCC2)N=C(c2ccc(OCCCO)cc2)O[C@H]1c1ccccc1CN=[N+]=[N-]
test.system: wheat germ agglutinin (Triticum aestivum), Alexa647-labelled
composite z-score: 1.09

compound: C[N+](C)(C)CCCC[C@@H]1NC(=O)[C@@H]2C[C@H](C(=O)O)[C@H](c3cccc(OCCO)c3)N2C1=O
test.system: wheat germ agglutinin (Triticum aestivum), Alexa647-labelled
composite z-score: 0.218

compound: COc1ccc([Si](C)(C)[C@@H]2[C@@H](CC(=O)N(CCO)Cc3ccccc3)O[C@]3(C(=O)N(C)c4c(Br)cc(C)cc43)[C@H]2C)cc1
test.system: wheat germ agglutinin (Triticum aestivum), Alexa647-labelled
composite z-score: 0.114

compound: COCCOC(=O)N1C(=O)[C@@]2(c3cc(C#CCNC(N)=O)ccc31)[C@H](c1ccc(OCCO)cc1)N1[C@H](c3ccccc3)[C@H](c3ccccc3)OC(=O)[C@H]1[C@@H]2C(=O)N1CCN(c2ncccn2)CC1
test.system: wheat germ agglutinin (Triticum aestivum), Alexa647-labelled
composite z-score: 0.447

compound: COC(=O)[C@]1(Cc2ccccc2N=[N+]=[N-])N=C(c2ccc(OCCCO)cc2)O[C@@H]1c1ccccc1
test.system: wheat germ agglutinin (Triticum aestivum), Alexa647-labelled
composite z-score: 0.244

compound: CCOc1cc(C(O)C2C=CC3C(=O)NC(=O)C3N2Nc2ccccn2)ccc1O (stereo not given)
test.system: wheat germ agglutinin (Triticum aestivum), Alexa647-labelled
composite z-score: -0.298

compound: COc1ccc([Si](C)(C)[C@@H]2[C@@H](CCO)O[C@]3(C(=O)N(Cc4ccccc4)c4ccc(N5C(=O)COc6ccccc65)cc43)[C@H]2C)cc1
test.system: wheat germ agglutinin (Triticum aestivum), Alexa647-labelled
composite z-score: 0.622

compound: COC(=O)c1ccc(OC)c(/C=C\CC(CCc2ccccc2)OC(=O)c2ccncc2)c1 (stereo not given)
test.system: wheat germ agglutinin (Triticum aestivum), Alexa647-labelled
composite z-score: 0.334

compound: COc1cc2c(cc1OC)CN(C(=O)[C@@H]1[C@H]3C(=O)O[C@H](c4ccccc4)[C@H](c4ccccc4)N3[C@H](c3ccc(O)cc3)[C@@]13C(=O)Nc1ccc(C#CCNC(N)=O)cc13)CC2
test.system: wheat germ agglutinin (Triticum aestivum), Alexa647-labelled
composite z-score: 0.607

compound: COC(=O)c1c(CC[C@@H](CO)NC(=O)N[C@@H](C)Cn2cc(C3(O)CCCC3)nn2)oc(C(C)=O)c1C(=O)OC
test.system: wheat germ agglutinin (Triticum aestivum), Alexa647-labelled
composite z-score: 1.3

compound: Cc1ccccc1C(O)C1C=CC2C(=O)N(Cc3ccccc3)C(=O)C2N1n1cnnc1 (stereo not given)
test.system: wheat germ agglutinin (Triticum aestivum), Alexa647-labelled
composite z-score: 0.429

compound: COc1cc(C(O)C2C=CC3C(=O)N(C)C(=O)C3N2NC(=O)OC(C)(C)C)cc(OC)c1OC (stereo not given)
test.system: wheat germ agglutinin (Triticum aestivum), Alexa647-labelled
composite z-score: 0.807

compound: CCCC=C(CCC)[C@@H](NS(=O)(=O)c1cccc2cccnc12)c1ccc(C(=O)OC)cc1
test.system: wheat germ agglutinin (Triticum aestivum), Alexa647-labelled
composite z-score: -0.0663

compound: CCN(CC)c1ccc(N2CC=CC34O[C@@H]5/C=C\CCCOC(=O)C5[C@H]3C(=O)N(CCCCCO)[C@@H]4C2=O)cc1 (stereo not given in full)
test.system: wheat germ agglutinin (Triticum aestivum), Alexa647-labelled
composite z-score: -1.19

compound: CC(C)NC(=O)[C@@H]1c2ccccc2C(=O)N(Cc2cc(C(F)(F)F)cc(C(F)(F)F)c2)[C@H]1c1ccc(CO)cc1
test.system: wheat germ agglutinin (Triticum aestivum), Alexa647-labelled
composite z-score: 0.375

compound: CC(C)NC(=O)[C@@]1(Cc2ccccc2I)c2ccccc2C(=O)N(Cc2ccccc2C(F)(F)F)[C@H]1c1ccc(CO)cc1
test.system: wheat germ agglutinin (Triticum aestivum), Alexa647-labelled
composite z-score: 1.15
